details: buffer; pH 7.4; 200.0 µM
assay_readout: solubility kinetic

# compound_structure, result
data = [
    ("CN1CCN(c2ccc(F)cc2N)CC1", "> 0.0314 mg/mL"),
    ("O=C(O)CC1(CC(=O)Nc2cccc(C(=O)O)c2)CCCC1", "> 0.0458 mg/mL"),
    ("O=C(COC(=O)Cc1ccc(F)cc1)NC1CCCC1", "> 0.0419 mg/mL"),
]

Now look at this entry.
For CN1CCN(C(=O)/C(=C/c2ccccc2F)NC(=O)c2ccccc2)CC1 , what is its reported solubility kinetic?
> 0.0551 mg/mL

###

details: buffer; pH 7.4; 200.0 µM
assay_readout: solubility kinetic

# molecule, solubility kinetic
data = [
    ("Cc1noc(C)c1NC(=O)N1CCN(Cc2ccccc2)CC1", "> 47.2 µg/mL"),
    ("Cc1ccc(Cl)c(NC(=O)CSc2cccc[n+]2[O-])c1Cl", "> 51.5 µg/mL"),
    ("O=C(O)c1nccnc1C(=O)Nc1ccc(Cl)cc1Cl", "> 46.8 µg/mL"),
    ("O=C(CSC(=S)N1CCCC1)NCCc1ccccc1", "> 46.3 µg/mL"),
    ("Nc1ccc(Oc2c(Cl)cccc2Cl)nc1", "> 38.3 µg/mL"),
    ("Cc1ccc(C)c2nc(Cl)c(C#N)cc12", "< 0.2 µg/mL"),
]

For Cc1ccc(NC(=O)Cn2cnc([N+](=O)[O-])c2)cc1C , what is its reported solubility kinetic?
> 41.1 µg/mL

For CC(C)NC(=O)c1ccc(S(=O)(=O)N(C)C)cc1 , what is its reported solubility kinetic?
> 40.6 µg/mL

For CC(=O)N1CCN(S(=O)(=O)c2ccc(C)cc2)C1C (stereo unspecified) , what is its reported solubility kinetic?
> 42.4 µg/mL

For O=C(O)/C=C/c1ccc(Oc2ncccn2)cc1 , what is its reported solubility kinetic?
> 36.3 µg/mL

For CCNCc1cc([N+](=O)[O-])ccc1OCC.Cl , what is its reported solubility kinetic?
> 39.1 µg/mL

For CCCCCn1cnnc1SCC(=O)c1ccc2c(c1)OCO2 , what is its reported solubility kinetic?
> 50 µg/mL

For CCN(Cc1cnn(C)c1)Cc1nc(Cc2ccccc2Cl)no1 , what is its reported solubility kinetic?
> 51.9 µg/mL

For CC(NC(=O)c1ccco1)C(=O)N1CC=C(c2ccccc2)CC1 (stereo unspecified) , what is its reported solubility kinetic?
> 48.7 µg/mL

For O=C(N/C(=C/c1ccccc1)C(=O)N1CCCCC1)c1ccco1 , what is its reported solubility kinetic?
> 48.7 µg/mL

For COc1ccccc1C(=O)Nc1nc2cc3c(cc2s1)OCO3 , what is its reported solubility kinetic?
< 0.4 µg/mL

For COc1cccc(C2(O)CCN(CC(=O)NCC3CC3)CC2)c1 , what is its reported solubility kinetic?
> 47.8 µg/mL

For CC12CC3(C)CC(C)(C1)CC(C(=O)NCc1cccnc1)(C2)C3 , what is its reported solubility kinetic?
> 46.9 µg/mL

For CCCC(=O)Nc1ccc2oc(=O)ccc2c1 , what is its reported solubility kinetic?
> 34.7 µg/mL

###

The reader will find reported solubility kinetic values listed item by item below.
settings: buffer; pH 7.4; 200.0 µM

Solved cases (3 shown):
# compound, result
records = [
    ("CN1C(=O)/C(=C\\c2ccc(N(C)C)cc2)OC1=S", "< 0.3 µg/mL"),
    ("CC(C)(CNS(=O)(=O)c1cccs1)N1CCOCC1", "> 45.7 µg/mL"),
    ("NC(=O)c1ccc(NC(=O)COC(=O)C2CC3C=CC2C3)cc1 (stereo not drawn)", "> 47.2 µg/mL"),
]

For CCOc1ccc(Nc2ccnc3cc(Cl)ccc23)cc1 , what is its reported solubility kinetic?
< 0.3 µg/mL

For CCC(=O)Nc1ccc(Cl)c(-c2nc3ncccc3o2)c1 , what is its reported solubility kinetic?
> 45.3 µg/mL

For O=C(NC1CCS(=O)(=O)C1)C1C2CC3CC(C2)CC1C3 (stereo not drawn) , what is its reported solubility kinetic?
> 44.6 µg/mL

###

The reader will find reported log10(solubility kinetic) values listed item by item below.
settings: buffer; pH 7.4; 200.0 µM
Friendly reminder: values = log10 of solubility kinetic, unit µg/mL.

For CCCCOc1c(Br)cc(CNCCCN2CCOCC2)cc1OC.Cl , what is its reported log10(solubility kinetic)?
1.78

For Cc1cccc(OCC2Cn3c(nc4c3c(=O)[nH]c(=O)n4C)O2)c1 (stereo not given) , what is its reported log10(solubility kinetic)?
0.95

For CN=C1S/C(=C\c2ccc(O)c(OC)c2)C(=O)N1C , what is its reported log10(solubility kinetic)?
0.77

For N/C(=N\OC(=O)c1ccc(Cl)cc1[N+](=O)[O-])c1ccccn1 , what is its reported log10(solubility kinetic)?
0.48

For O=C(CCCCC(=O)N1CCOCCOCCOCC1)OCc1ccccc1 , what is its reported log10(solubility kinetic)?
1.75

For O=C(NCC1CCCCC1)c1cccc(Br)c1 , what is its reported log10(solubility kinetic)?
0.34

###

conditions: buffer; pH 7.4; 200.0 µM
The reader will find reported solubility kinetic values listed item by item below.
Give the value, in units of µg/mL, as a plain number.

Solved cases (5 shown):
# compound, unit_name, quantitative_readout
records = [
    ("CC(=O)c1cccc(NC(=O)Nc2ccccc2)c1", "µg/mL", 10.5),
    ("O=C(NCC(F)(F)F)c1ccc(S(=O)(=O)Nc2ccccc2N2CCCC2)cc1", "µg/mL", 15.4),
    ("CC1(C)Cc2ccccc2C(C(Cc2ccccc2)C(N)=O)=N1 (centres undefined)", "µg/mL", 41.8),
    ("CCN1CSC(=S)N(Cc2ccc(OC)cc2)C1", "µg/mL", 38.6),
    ("CC(=O)Nc1ccc(NC(=O)c2cc([N+](=O)[O-])cc([N+](=O)[O-])c2)cc1", "µg/mL", 7.9),
]

For O=C(COC(=O)/C=C/c1cccc(C(F)(F)F)c1)NC(=O)NCc1ccco1 , what is its reported solubility kinetic?
4.5

For CCN(CC)c1ccc(C(=O)OCc2c(C)noc2C)cc1 , what is its reported solubility kinetic?
2.8

For Cc1cc(C(=O)OCC(=O)Nc2cccc([N+](=O)[O-])c2)c(C)o1 , what is its reported solubility kinetic?
3.8

For CCOC(=O)CC(c1ccc([N+](=O)[O-])cc1)n1c(C)ccc1C (centres undefined) , what is its reported solubility kinetic?
32.9

For Cc1cc(C(=O)CN2C(=O)NC3(CCC(C)CC3)C2=O)c(C)n1C (centres undefined) , what is its reported solubility kinetic?
13.3

For CCN(CC)c1ccc(/C=C(/C#N)C(=O)NC(C)C)o1 , what is its reported solubility kinetic?
38.6

For COC(=O)c1onc(-c2c(Cl)cccc2Cl)c1C(=O)OC , what is its reported solubility kinetic?
41.2

###

The reader will find reported solubility kinetic values listed item by item below.
details: buffer; pH 7.4; 200.0 µM

Solved cases (7 shown):
# compound, solubility kinetic
records = [
    ("O=C(N/N=C/C1CCCCC1)c1ccccc1-n1cccc1", "> 44.3 µg/mL"),
    ("CCn1ccnc1CN1CCN(CCC(C)C)C(CCO)C1 (stereo not drawn)", "> 46.3 µg/mL"),
    ("CCN(CC)CC.COc1ccc(-n2c(=S)[nH]c3c(sc(=S)n3-c3ccccc3)c2=O)c(OC)c1", "> 64.4 µg/mL"),
    ("CCN(C(=O)COc1ccc2ccc(=O)oc2c1)C1CCCCC1", "> 49.4 µg/mL"),
    ("CN(Cc1cnccn1)Cc1nc(Cc2ccccc2F)no1", "> 47 µg/mL"),
    ("Cc1ccc(C2=CSC3=NS(=O)(=O)CCN23)cc1", "> 42.1 µg/mL"),
    ("Cc1ccc(NC(=O)C2CCN(C(=O)c3cccs3)CC2)cc1", "> 49.3 µg/mL"),
]

For c1ccc2c(c1)CC(CN1CCNCC1)O2 (stereo not drawn) , what is its reported solubility kinetic?
> 32.7 µg/mL

###

details: buffer; pH 7.4; 200.0 µM
The reader will find reported solubility kinetic values listed item by item below.

# molecule, solubility kinetic
measured = [
    ("Cc1noc(NS(=O)(=O)c2ccc(N)cc2)c1C", "> 40.1 µg/mL"),
    ("O=C(NCCOc1ccccc1)c1ccccc1[N+](=O)[O-]", "> 42.9 µg/mL"),
    ("CCCN(CC(=O)Nc1ccc(Cl)cc1Cl)C(=O)c1ccc(=O)[nH]c1", "> 57.3 µg/mL"),
    ("CN(C(=O)CN1C(=O)NC2(CCCc3ccccc32)C1=O)C1CCCCC1 (centres undefined)", "> 55.4 µg/mL"),
    ("CCOC(=O)C1(CCOC)CCN(Cc2ccncc2)CC1", "> 46 µg/mL"),
]

For Cc1ccc2c(CN(C)Cc3cccc(F)c3)cc(=O)oc2c1C , what is its reported solubility kinetic?
2.9 µg/mL

For O=[N+]([O-])c1ccc(CN2C=NS(=O)(=O)c3ccccc32)cc1 , what is its reported solubility kinetic?
> 47.6 µg/mL

For O=C(NCCCN1CCOCC1)c1ccc(Cl)c([N+](=O)[O-])c1 , what is its reported solubility kinetic?
45.2 µg/mL

For O=[N+]([O-])c1ccc(Cl)c(S(=O)(=O)Nc2cccc(S(=O)(=O)NC3=NCCC3)c2)c1 , what is its reported solubility kinetic?
> 68.8 µg/mL
